- Target Of Assay: human muscarinic M1 receptor (Homo sapiens)
- Sequence (P11229 1-460): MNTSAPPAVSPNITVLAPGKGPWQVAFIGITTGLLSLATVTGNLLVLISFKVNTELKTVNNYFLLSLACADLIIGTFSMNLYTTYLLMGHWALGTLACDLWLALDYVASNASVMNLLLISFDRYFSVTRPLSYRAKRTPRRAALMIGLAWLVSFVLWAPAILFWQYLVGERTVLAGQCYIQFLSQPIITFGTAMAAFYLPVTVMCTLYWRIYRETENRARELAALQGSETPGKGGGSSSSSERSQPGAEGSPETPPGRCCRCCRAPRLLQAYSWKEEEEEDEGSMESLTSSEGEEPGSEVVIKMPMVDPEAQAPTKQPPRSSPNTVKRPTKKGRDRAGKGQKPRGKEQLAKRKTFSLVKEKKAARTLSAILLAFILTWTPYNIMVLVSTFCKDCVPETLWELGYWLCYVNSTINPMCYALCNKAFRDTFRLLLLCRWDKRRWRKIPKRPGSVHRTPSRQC
- Experiment Notes: Alphascreen Surefire phospho-ERK1/2 functional assay, M1
- Type: cell-based
- Assay Context: CHO cells stably expressing human M1; agonist 5 min, 37° C.; read-out: pEC50 M1 (converted)
Property: EC50 (nM)
Respond numerically; units are nM and should not be typed.

Below, 5 molecules whose answers are already recorded.
[[record]]
molecule = "O=C1CCON1CCCCC1CCN(CCCN2C(=O)CCc3ccccc32)CC1"
observed_measurement = 10

[[record]]
molecule = "O=C1CCc2ccccc2N1CCCN1CCC(CCOC2=NOCC2)CC1"
observed_measurement = 63.1

[[record]]
molecule = "O=C1CCc2ccccc2N1CCCN1C2CCC1CC(CCCOC1=NOCC1)C2 (stereo not shown)"
observed_measurement = 3.16

[[record]]
molecule = "O=C1CCc2ccccc2N1CCCN1[C@@H]2CC[C@H]1C[C@@H](OCCOC1=NOCC1)C2"
observed_measurement = 6.31

[[record]]
molecule = "O=C1CCON1CCC1CCN(CCCN2C(=O)CCc3ccccc32)CC1"
observed_measurement = 794


Query molecule follows.
**Q:** Suppose we examine the molecule O=C1CCc2ccccc2N1CCCN1[C@@H]2CC[C@H]1CC(CCOC1=NOCC1)C2 (stereo partly shown) ; what EC50 value has been reported?
**A:** 100

###

- Target Of Assay: human muscarinic M4 receptor (Homo sapiens)
- Construct: expressed in transfected cells
- Sequence (P08173 whole entry): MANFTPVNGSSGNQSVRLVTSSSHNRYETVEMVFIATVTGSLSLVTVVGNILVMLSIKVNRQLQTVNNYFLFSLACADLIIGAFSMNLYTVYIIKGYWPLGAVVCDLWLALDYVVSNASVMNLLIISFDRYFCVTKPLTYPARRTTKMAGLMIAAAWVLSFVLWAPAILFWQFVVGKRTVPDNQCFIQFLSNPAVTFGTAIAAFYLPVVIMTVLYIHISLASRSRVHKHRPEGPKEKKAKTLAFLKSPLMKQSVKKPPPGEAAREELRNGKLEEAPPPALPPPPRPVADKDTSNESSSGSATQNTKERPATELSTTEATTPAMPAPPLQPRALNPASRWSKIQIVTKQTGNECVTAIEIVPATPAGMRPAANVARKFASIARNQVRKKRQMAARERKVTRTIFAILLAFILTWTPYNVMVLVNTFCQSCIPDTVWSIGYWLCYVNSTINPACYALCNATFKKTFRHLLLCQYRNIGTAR
- Experiment Notes: Alphascreen Surefire phospho-ERK1/2 functional assay, M4
- Assay type: cell-based
- Assay Context: CHO, read-out: % Emax cf. ACh, M4
- Protocol: ERK1/2 phosphorylation is a downstream consequence of both Gq/11 and Gi/o protein coupled receptor activation, making it highly suitable for the assessment of M1, M3 (Gq/11 coupled) and M2, M4 receptors (Gi/o coupled), rather than using different assay formats for different receptor subtypes. […] Plates were incubated for 2 h with gentle agitation in the dark and then read on a PHERAstar plate reader. pEC50 and Emax figures were calculated from the resulting data for each receptor subtype.
Measured Emax of individual entries
// return numeric value only (unit: %, not printed)

Solved cases below.
[[record]]
compound = "O=C1CCc2ccccc2N1CCCN1C2CCC1CC(CCCOC1=NOCC1)C2 (centres unmarked) [Example 4]"
observed_measurement = 11

[[record]]
compound = "O=C1CCc2ccccc2N1CCCN1CCC(CCOC2=NOCC2)CC1 [Example 1]"
observed_measurement = 19

[[record]]
compound = "O=C1CCON1CCC1CCN(CCCN2C(=O)CCc3ccccc32)CC1 [Example 10]"
observed_measurement = 13

[[record]]
compound = "O=C1CCON1CCCCC1CCN(CCCN2C(=O)CCc3ccccc32)CC1 [Example 11]"
observed_measurement = 10


Alright, here's another compound for you.
**Q:** # Emax lookup, item O=C1CCc2ccccc2N1CCCN1[C@@H]2CC[C@H]1C[C@@H](OCCOC1=NOCC1)C2 [Example 5]
**A:** 19

###

- Target Of Assay: UniProtKB P11229
- Sequence (P11229 1-460): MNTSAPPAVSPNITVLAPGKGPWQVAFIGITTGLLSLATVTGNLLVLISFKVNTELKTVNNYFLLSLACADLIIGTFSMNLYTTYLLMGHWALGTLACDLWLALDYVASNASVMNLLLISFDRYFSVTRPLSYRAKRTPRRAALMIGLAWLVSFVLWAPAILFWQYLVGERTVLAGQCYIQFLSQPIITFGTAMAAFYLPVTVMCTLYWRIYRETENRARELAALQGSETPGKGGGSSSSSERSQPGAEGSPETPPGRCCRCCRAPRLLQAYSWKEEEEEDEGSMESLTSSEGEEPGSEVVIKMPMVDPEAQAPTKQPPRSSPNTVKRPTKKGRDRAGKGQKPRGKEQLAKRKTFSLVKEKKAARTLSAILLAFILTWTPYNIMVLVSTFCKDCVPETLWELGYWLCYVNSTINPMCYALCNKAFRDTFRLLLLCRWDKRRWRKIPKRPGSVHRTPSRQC
- Experiment Notes: Alphascreen Surefire phospho-ERK1/2 functional assay, M1
- Type: cell-based
- Assay Context: CHO, read-out: % Emax cf. ACh, M1
Entries and their measured Emax follow.
Quick reminder: number only, in %, skip the unit.

[[record]]
compound = "c1ccc2c(c1)CCCN2CCCN1C2CCC1CC(CCCOC1=NOCC1)C2 (stereo not shown)"
property = "Emax"
observed_measurement = 40


**Q:** Form field - read-out: Emax; system: UniProtKB P11229; submitted item: O=C1CCc2ccccc2N1CCCN1C2CCC1CC(CCCOC1=NOCC1)C2 (stereo not shown)
**A:** 71

**Q:** Item O=C1CCON1CCCC1C[C@@H]2CC[C@@H](C1)N2CCCN1C(=O)CCc2ccccc21 (stereo partly shown) with UniProtKB P11229 - Emax?
**A:** 62

**Q:** Form field - read-out: Emax; system: UniProtKB P11229; submitted item: O=C1CCc2ccccc2N1CCCN1[C@@H]2CC[C@H]1CN(CCCOC1=NOCC1)C2
**A:** 103

###

- Target Of Assay: human muscarinic M1 receptor (Homo sapiens, UniProt P11229)
- Sequence (P11229 1-460): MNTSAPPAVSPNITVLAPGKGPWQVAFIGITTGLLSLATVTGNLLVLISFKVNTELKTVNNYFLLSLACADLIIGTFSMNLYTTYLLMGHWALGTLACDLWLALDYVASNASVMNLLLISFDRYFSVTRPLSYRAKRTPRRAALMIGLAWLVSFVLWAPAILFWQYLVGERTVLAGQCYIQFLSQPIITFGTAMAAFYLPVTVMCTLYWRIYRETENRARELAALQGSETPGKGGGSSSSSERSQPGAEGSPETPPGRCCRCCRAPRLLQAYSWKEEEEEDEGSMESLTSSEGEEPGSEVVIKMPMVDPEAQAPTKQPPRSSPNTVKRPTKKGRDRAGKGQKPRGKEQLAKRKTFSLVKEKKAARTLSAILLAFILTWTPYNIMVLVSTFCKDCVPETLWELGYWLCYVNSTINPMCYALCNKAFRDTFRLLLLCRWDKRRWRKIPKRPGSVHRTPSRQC
- Experiment Notes: Alphascreen Surefire phospho-ERK1/2 functional assay, M1
- Assay type: cell-based
- Assay Context: CHO cells stably expressing human M1; agonist 5 min, 37° C.; read-out: pEC50 M1 (converted)
With a cut-off of 0.03 µM, any EC50 strictly below it is called Condition met; any EC50 meeting it or above is called Condition not met.

Solved entries (count: 4):
[[record]]
compound = "O=C1CCc2ccccc2N1CCCN1[C@@H]2CC[C@H]1CN(CCCOC1=NOCC1)C2 [Example 6]"
category_label = "Condition met"

[[record]]
compound = "O=C1COc2cc(F)ccc2N1CCCN1CCC(CCCCOC2=NOCC2)CC1 [Example 8]"
category_label = "Condition met"

[[record]]
compound = "O=C1CCON1CCCC1C[C@@H]2CC[C@@H](C1)N2CCCN1C(=O)CCc2ccccc21 (stereo partly shown) [Example 13]"
category_label = "Condition not met"

[[record]]
compound = "O=C1CCON1CCCCCC1CCN(CCCN2C(=O)CCc3ccccc32)CC1 [Example 12]"
category_label = "Condition met"


**Q:** Does the reported EC50 of c1ccc2c(c1)CCCN2CCCN1C2CCC1CC(CCCOC1=NOCC1)C2 (stereo not shown) [Example 9] stay below 0.03 µM?
**A:** Condition met

**Q:** Decide: EC50 of O=C1CCc2ccccc2N1CCCN1CCC(CCCCOC2=NOCC2)CC1 [Example 2] strictly below 0.03 µM?
**A:** Condition met

**Q:** Answer whether the compound O=C1COc2cc(F)ccc2N1CCCN1CCC(CCOC2=NOCC2)CC1 [Example 7] has EC50 strictly less than 0.03 µM
**A:** Condition not met
